- assayed.system: Angiotensin II receptor (Rattus norvegicus) (UniProt P29089+P25095+P35351)
- assay.explanation: Ratio of inhibitory concentration against AT2 receptor and AT1 receptor of rat adrenal membrane
// assign MET if Ratio falls strictly below 2, else NOT MET (ties count as NOT MET)

>  <structure.as.smiles>
CCCCc1nc2ccc(NC(=O)N(C)C(C)C)cc2c(=O)n1Cc1ccc(-c2ccccc2S(=O)(=O)NC(=O)OCCC(C)C)cc1F

>  <label.value>
MET

$$$$
>  <structure.as.smiles>
CCc1nc2ccc(NC(=O)N(C)C(C)C)cc2c(=O)n1Cc1ccc(-c2ccccc2S(=O)(=O)NC(=O)OCCC2CC2)cc1F

>  <label.value>
MET

$$$$
>  <structure.as.smiles>
CCCc1nc2ccc(NC(=O)N3CCOCC3)cc2c(=O)n1Cc1ccc(-c2ccccc2S(=O)(=O)NC(=O)OCCC(C)C)cc1F

>  <label.value>
NOT MET

$$$$
>  <structure.as.smiles>
CCNC(=O)Nc1ccc2nc(CC)n(Cc3ccc(-c4ccccc4S(=O)(=O)NC(=O)OCCC4CC4)cc3F)c(=O)c2c1

>  <label.value>
MET

$$$$
>  <structure.as.smiles>
CCc1ccc(C(=O)NS(=O)(=O)c2ccccc2-c2ccc(Cn3c(CC)nc4ccc(NC(=O)NC(C)C)cc4c3=O)c(F)c2)c(F)c1

>  <label.value>
NOT MET

$$$$
>  <structure.as.smiles>
CCc1nc2ccc(NC(=O)N3CCOCC3)cc2c(=O)n1Cc1ccc(-c2ccccc2S(=O)(=O)NC(=O)OCCC(C)C)cc1F

>  <label.value>
MET

$$$$
>  <structure.as.smiles>
CCc1nc2ccc(NC(=O)c3ccccn3)cc2c(=O)n1Cc1ccc(-c2ccccc2S(=O)(=O)NC(=O)OCCC(C)C)cc1F

>  <label.value>
NOT MET

$$$$
